measurementProtocol: protein stability index of a GFP-peptide fusion (GPS, HEK-293T) (PSI 1-6); higher = more stable;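 further: 24-mer peptide tiles fused after GFP, lentivirally expressed, FACS-sorted into six equal bins by GFP/DsRed ratio, decoded by Illumina sequencing, PSI is the read-weighted mean bin number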
settings: treatment: DMSO; c terminus: a fixed tail appended
Binary call on protein stability index: met from 3 upward, not met beneath that.

// query I'd appreciate it if you could say whether YNISEFTRRHPGGSRVISHYAGQD [FADS1] has protein stability index at least equal to 3.
// result met

// query I'd appreciate it if you could say whether VISLEKLNVGNERYVFEAVIRWIA [GAN] has protein stability index at least equal to 3.
// result not met

// query I'd appreciate it if you could say whether IGAAPFSGRRNWCSYVVTRTISCH [EMID1] has protein stability index at least equal to 3.
// result not met

----------
measurementProtocol: protein stability index of a GFP-peptide fusion (GPS, HEK-293T) (PSI 1-6); higher = more stable
settings: treatment: MLN4924 1 uM, 8 h; c terminus: a fixed tail appended
Binary call on protein stability index: y from 4 upward, n beneath that.

- sequenceEntry: "LGLNAAFWFFALTSLRLVFLLAFG [RETREG3]"
  assignedCategory: "n"
- sequenceEntry: "PVVKKKGVKRKADTTTPTTSAITA [BRD3]"
  assignedCategory: "y"

// query I'd appreciate it if you could say whether DSCCPAGIFQAMCLLICAEMYQVS [RHOBTB3] has protein stability index at least equal to 4.
// result n

// query I'd appreciate it if you could say whether QAQIDQYLGLVRTHINAVVAKIQA [RTN1] has protein stability index at least equal to 4.
// result n

// query I'd appreciate it if you could say whether IANYELVYKDGEHGEEQRITIEPG [PTPRD] has protein stability index at least equal to 4.
// result y

// query I'd appreciate it if you could say whether FVSALGITAGAHRLWSHRSYKARL [SCD] has protein stability index at least equal to 4.
// result n

// query I'd appreciate it if you could say whether QPSFPEILLESHMVMIRGNSGLKP [POMT2] has protein stability index at least equal to 4.
// result n

// query I'd appreciate it if you could say whether KSLEIEEKINKIKWLPQQNAAHSL [PPP2R2C] has protein stability index at least equal to 4.
// result n

// query I'd appreciate it if you could say whether QNLCKGLSQPTTNLVAGCLQLNAR [NEUROD6] has protein stability index at least equal to 4.
// result n

// query I'd appreciate it if you could say whether ASKKTAQPWVEVVLALRNMKNLLF [MFSD9] has protein stability index at least equal to 4.
// result n

// query I'd appreciate it if you could say whether CYNGQDAVVNELIDYGANVNQPNN [ANKRD44] has protein stability index at least equal to 4.
// result y

// query I'd appreciate it if you could say whether KEDKIMLDDRKNEEDGGADEHEHP [MIA2] has protein stability index at least equal to 4.
// result y

// query I'd appreciate it if you could say whether HIFAHRIYLATSSSKFYDLFLMEC [RHOBTB1] has protein stability index at least equal to 4.
// result n

// query I'd appreciate it if you could say whether LEIELQSQLSMKAGLENTVAETEC [KRT13] has protein stability index at least equal to 4.
// result y

// query I'd appreciate it if you could say whether AVNRARRPLARPIKRGDILPPEKG [RHOBTB1] has protein stability index at least equal to 4.
// result n

// query I'd appreciate it if you could say whether AFLLLPLPDELGSQLPQVLHVSLG [MOSPD3] has protein stability index at least equal to 4.
// result n

// query I'd appreciate it if you could say whether QTTYLEDRPMFMLQCAMEENCLSA [LOXL2] has protein stability index at least equal to 4.
// result n

// query I'd appreciate it if you could say whether MRAPMLQKQQAPRMDTPPPEERLE [CCDC89] has protein stability index at least equal to 4.
// result y
